# protocol details: Pharmacokinetics (PK) of CDD-2807 in mice
# Format: in vivo
# details: male, C57BL/6NJ, mouse, ip, i.p. injection 25 mg/kg, plasma, read-out: MRT0-∞
measured attribute: MRT inf

Query `O=C(c1ccc2[nH]nc(C#Cc3ccccc3-c3ccccc3)c2c1)N1CC2(CCCNC2)C1` yields MRT inf of 12.2 h

====

# target system: STK33 (Homo sapiens, UniProt Q9BYT3)
# Sequence (Q9BYT3 whole entry): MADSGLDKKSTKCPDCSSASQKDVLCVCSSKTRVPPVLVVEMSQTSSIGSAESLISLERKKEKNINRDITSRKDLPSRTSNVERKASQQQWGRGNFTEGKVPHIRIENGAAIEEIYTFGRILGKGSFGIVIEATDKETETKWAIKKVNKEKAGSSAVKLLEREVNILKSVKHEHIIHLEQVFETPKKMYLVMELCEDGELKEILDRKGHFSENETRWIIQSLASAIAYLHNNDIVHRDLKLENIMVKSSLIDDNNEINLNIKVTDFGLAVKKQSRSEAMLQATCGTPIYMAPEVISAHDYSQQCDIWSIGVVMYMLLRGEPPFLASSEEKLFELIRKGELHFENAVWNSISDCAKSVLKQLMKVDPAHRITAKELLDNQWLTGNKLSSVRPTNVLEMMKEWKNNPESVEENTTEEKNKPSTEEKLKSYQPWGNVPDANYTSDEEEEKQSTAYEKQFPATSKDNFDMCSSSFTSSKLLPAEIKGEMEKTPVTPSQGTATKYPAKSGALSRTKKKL
# protocol details: NanoBRET target engagement intracellular kinase assay
# details: HEK293 cells, 2 hours incubation
pIC50: −log10 of the molar value.
Record 1 (yes) whenever pIC50 is at 7 or higher; record 0 (no) when lower.

O=C(c1ccc2[nH]nc(C#Cc3ccccc3-c3ccccc3)c2c1)N1CCC(O)C1 (centres unmarked); 0 (no)
CN(C)[C@H]1CCN(C(=O)c2ccc3[nH]nc(C#Cc4ccccc4-c4ccccc4)c3c2)C1; 0 (no)

hey, is pIC50 for this one >= 7? `CN(C)[C@@H]1CCN(C(=O)c2ccc3[nH]nc(C#Cc4ccccc4-c4ccccc4)c3c2)C1`
1 (yes)

Form field: pIC50 at least 7? Entry: CN(C)C1CCN(C(=O)c2ccc3[nH]nc(C#Cc4cccc(-c5ccccc5)c4)c3c2)C1 (centres unmarked)
0 (no)

Confirm if pIC50 reported for the compound NC1CCN(C(=O)c2ccc3[nH]nc(C#Cc4ccccc4-c4ccccc4)c3c2)C1 (centres unmarked) is 7 or above.
1 (yes)

API: above_or_equal(metric=pIC50, cutoff=7) for item `O=C(c1ccc2[nH]nc(C#Cc3ccccc3-c3ccccc3)c2c1)N1CC2(CCCNC2)C1`
1 (yes)

Quick check, pIC50 >= 7? CNC(=O)C1CCN(C2CCN(C(=O)c3ccc4[nH]nc(C#Cc5ccccc5-c5ccccc5)c4c3)C2)CC1 (centres unmarked)
1 (yes)

Reported pIC50 reaches at least 7 for CNC(=O)CCC1CCN(C(=O)C2CCN(C3CCN(C(=O)c4ccc5[nH]nc(C#Cc6ccccc6-c6ccccc6)c5c4)C3)CC2)CC1 (centres unmarked) ?
0 (no)
